Recorded measurements of CC50, one per entry
Tested on: THP-1 macrophages
protocolDescription: Effect of compounds on host cell viability (MTT)
Type: cell-based
experimentalSetup: read-out: 24h LC50; THP1 macrophages, 24-hour incubation, MTT assay (Supplemental Table 2)
Procedure: The cells were cultured at 37C, 5% CO2 in RPMI medium (ATCC) supplemented with 10% FBS, 1% Penicillin/Streptomycin and 0.05 mM of β-mercaptoethanol. Cells were used in experiments up to passage 10. Effect of the compounds on THP-1 cell viability measured using thiazolyl blue tetrazolium bromide which measures cell metabolic activity (MTT). THP-1 cells were seeded in a 96 well plate (25,000 cells/well) overnight then differentiated with 150 nM phorbol 12-myristate 13-acetate (PMA) over 72 hours. […]
quantity: CC50

# compound, quantity, result
rows = [
    ("CC(C)c1cc(C(F)(F)F)nn1-c1ccc(NC2CCNC2)cc1 (stereo not drawn)", "CC50", "25.1 µM"),
    ("NC(Cc1ccccc1)C(=O)Nc1ccc(-n2cc(C(F)(F)F)nc2-c2ccc(-c3ccc(C(F)(F)F)cc3)cc2)cc1 (stereo not drawn)", "CC50", "8.2 µM"),
    ("CC(C)(C)OC(=O)N1CCC(Nc2ccc(-n3nc(C(F)(F)F)cc3-c3ccc(-c4ccc(C(F)(F)F)cc4)cc3)cc2)C1 (stereo not drawn)", "CC50", "> 50 µM"),
    ("FC(F)(F)c1cc(-c2cccnc2)n(-c2ccc(NC3CCNC3)cc2)n1 (stereo not drawn)", "CC50", "> 50 µM"),
    ("C#CCCCC(=O)NC1CCN(c2ccc(-n3nc(C(F)(F)F)cc3-c3ccc(-c4ccc(C(F)(F)F)cc4)cc3)cc2)CC1", "CC50", "14.7 µM"),
    ("FC(F)(F)c1ccc(-c2ccc(-c3cc(C(F)(F)F)nn3-c3ccc(OC4CCN(Cc5ccccc5)C4)cc3)cc2)cc1 (stereo not drawn)", "CC50", "> 50 µM"),
    ("O=[N+]([O-])c1ccc(-n2cnc3ccc(Br)cc32)cc1", "CC50", "> 50 µM"),
    ("NCC(=O)Nc1ccc(-c2cc(C(F)(F)F)nn2-c2ccc(-c3ccc(C(F)(F)F)cc3)cc2)cc1", "CC50", "6.1 µM"),
    ("FC(F)(F)Oc1ccc(-n2nc(C(F)(F)F)cc2-c2ccc(-c3ccc(C(F)(F)F)cc3)cc2)cc1", "CC50", "> 50 µM"),
    ("Oc1ccc(CN2CCC(Nc3ccc(-n4nc(C(F)(F)F)cc4C4CCCCC4)cc3)C2)cc1 (stereo not drawn)", "CC50", "12.1 µM"),
    ("NCC(=O)NCCn1cc(C(F)(F)F)nc1-c1ccc(C(F)(F)F)cc1", "CC50", "> 50 µM"),
    ("Oc1ccc(CN2CCC(Oc3ccc(-n4nc(C(F)(F)F)cc4C4CCCCC4)cc3)CC2)cc1", "CC50", "8.2 µM"),
    ("NCCCCCN1CCC(Oc2ccc(-n3nc(C(F)(F)F)cc3C3CCCCC3)cc2)CC1", "CC50", "6.1 µM"),
    ("NCC(=O)Nc1ccc(-n2cc(C(F)(F)F)nc2-c2ccccc2C(F)(F)F)cc1", "CC50", "> 50 µM"),
    ("Oc1ccc(-n2nc(C(F)(F)F)cc2-c2ccc(-c3ccc(C(F)(F)F)cc3)cc2)cc1", "CC50", "> 50 µM"),
    ("CCCN(CCC)CCc1c[nH]c2ccccc12", "CC50", "> 50 µM"),
    ("FC(F)(F)c1cc(C2CC2)n(-c2ccc(NC3CCNC3)cc2)n1 (stereo not drawn)", "CC50", "17.2 µM"),
    ("CCc1cc(C(F)(F)F)nn1-c1ccc(NC2CCN(C(=O)OC(C)(C)C)C2)cc1 (stereo not drawn)", "CC50", "> 50 µM"),
    ("NCC(=O)Nc1ccc(-n2ccnc2-c2ccc(C(F)(F)F)cc2)cc1", "CC50", "> 50 µM"),
    ("FC(F)(F)c1ccc(-c2ccc(-c3cc(C(F)(F)F)nn3-c3ccc(N4CCNCC4)cc3)cc2)cc1 [Compound 208]", "CC50", "31 µM"),
    ("FC(F)(F)c1cn(-c2ccc(NCC3CC3)cc2)c(-c2ccc(-c3ccccc3)cc2)n1", "CC50", "> 50 µM"),
    ("COc1ccc(C(=O)N2CCC(Nc3ccc(-n4nc(C(F)(F)F)cc4-c4ccc(-c5ccc(C(F)(F)F)cc5)cc4)cc3)C2)cc1OC (stereo not drawn)", "CC50", "> 50 µM"),
    ("O=C(NCc1cccc(F)c1)c1ccc(-n2cc(C(F)(F)F)nc2-c2ccc(-c3ccc(C(F)(F)F)cc3)cc2)c(F)c1", "CC50", "28.7 µM"),
    ("NCCCCN1CCC(Oc2ccc(-n3nc(C(F)(F)F)cc3C3CCCCC3)cc2)CC1", "CC50", "6.5 µM"),
    ("Oc1ccc(CN2CCC(Oc3ccc(-n4nc(C(F)(F)F)cc4C4CCCCC4)cc3)C2)cc1 (stereo not drawn)", "CC50", "14.6 µM"),
    ("FC(F)(F)c1ccc(-c2ccc(-c3cc(C(F)(F)F)nn3-c3ccc(N4CCC(NCc5ccc6ccccc6c5)C4)cc3)cc2)cc1 (stereo not drawn)", "CC50", "> 50 µM"),
    ("Cc1cc(C(F)(F)F)n(-c2ccc(Br)cc2)n1", "CC50", "> 50 µM"),
    ("FC(F)(F)c1ccc(-c2ccc(-c3cc(C(F)(F)F)nn3-c3ccc(N4CCC(NCc5ccccc5Cl)C4)cc3)cc2)cc1 (stereo not drawn)", "CC50", "> 50 µM"),
    ("Oc1ccc(CNC2CCN(c3ccc(-n4nc(C(F)(F)F)cc4-c4ccc(-c5ccc(C(F)(F)F)cc5)cc4)cc3)C2)cc1 (stereo not drawn)", "CC50", "24.5 µM"),
    ("NC1CCN(c2ccc(-n3nncc3-c3ccc(-c4ccc(C(F)(F)F)cc4)cc3)cc2)C1 (stereo not drawn)", "CC50", "7.3 µM"),
]
